# Tested on: Digitaria ciliaris
# assay-name: Herbicidal activity against Digitaria ciliaris assessed as killing at 500 g/ha pre-emergence application upland paddy conditions measured after 14 days
# Format: functional
Measured Activity, listed per entry for reference.
Answer by giving the amount and then stating its unit.

Consider the reported Activity for these compounds:
| compound | readout-name | result |
| --- | --- | --- |
| CCN(CC)C(=O)n1cnc(S(=O)(=O)C(CC(C)C)C(=O)OC)n1 (stereo not given) | Activity | 100% |
| CCC(C(=O)OC)S(=O)(=O)c1ncn(C(=O)N(CC)CC)n1 (stereo not given) | Activity | 50% |
| CCN(CC)C(=O)n1cnc(S(=O)(=O)C(C(=O)OC)C2CC2)n1 (stereo not given) | Activity | 100% |
| CCC(C)C(C(=O)OC)S(=O)(=O)c1ncn(C(=O)N(CC)CC)n1 (stereo not given) | Activity | 100% |

Query: So what's the measured Activity for this one? CCN(CC)C(=O)n1cnc(S(=O)(=O)C(C)C(=O)OC)n1 (stereo not given)
Result: 80%

Query: Next compound up: CCN(CC)C(=O)n1cnc(S(=O)(=O)c2c(C)cc(C)cc2C)n1 [CAFENSTROLE]
Result: 90%

Query: Next compound up: CCN(CC)C(=O)n1cnc(S(=O)(=O)C(CCCC#N)C(=O)OC)n1 (stereo not given)
Result: 90%

Query: Next compound up: CCN(CC)C(=O)n1cnc(S(=O)(=O)C(CC2CC2)C(=O)OC)n1 (stereo not given)
Result: 90%

Query: Next compound up: CCN(CC)C(=O)n1cnc(S(=O)(=O)C(C(=O)OC)C(C)C)n1 (stereo not given)
Result: 90%

Query: Next compound up: CCC(CC)C(C(=O)OC)S(=O)(=O)c1ncn(C(=O)N(CC)CC)n1 (stereo not given)
Result: 90%

* * *

# Tested on: Schoenoplectiella juncoides
# assay-name: Herbicidal activity against Schoenoplectiella juncoides assessed as killing at 25 g/ha pre-emergence application under paddy conditions
# Type: functional
readout-name: Activity (%)
Reply with just the number (in %).

| molecule | readout-name | result |
| --- | --- | --- |
| CCN(CC)C(=O)n1cnc(S(=O)(=O)C(CC(C)C)C(=O)OC(C)C)n1 (stereo not given) | Activity | 60 |

Query: So what's the measured Activity for this one? CCN(CC)C(=O)n1cnc(S(=O)(=O)C(CC(C)C)C(=O)OC)n1 (stereo not given)
Result: 80

Query: Next molecule up: CCN(CC)C(=O)n1cnc(S(=O)(=O)C(CC(C)C)C(=O)OCC(C)C)n1 (stereo not given)
Result: 30

Query: Next molecule up: CCCCOC(=O)C(CC(C)C)S(=O)(=O)c1ncn(C(=O)N(CC)CC)n1 (stereo not given)
Result: 100

Query: Next molecule up: "CCN(CC)C(=O)n1cnc(S(=O)(=O)c2c(C)cc(C)cc2C)n1"
Result: 90

* * *

# Test system: Oryza sativa
# assay-name: Toxicity in Oryza sativa (rice) assessed as injury at 50 g/ha pre-emergence application under paddy conditions by crop safety assay
# Type: organism-based
# setup-conditions: in vivo, other
Measured Activity, listed per entry for reference.
Reply with just the number (in %).

| compound | Activity (%) |
| --- | --- |
| CCN(CC)C(=O)n1cnc(S(=O)(=O)C(C(=O)OC)C(C)C)n1 (stereo not given) | 40 |
| C=CC(C)C(C(=O)OC)S(=O)(=O)c1ncn(C(=O)N(CC)CC)n1 (stereo not given) | 10 |

Query: So what's the measured Activity for this one? CCN(CC)C(=O)n1cnc(S(=O)(=O)C(CC2CCCCC2)C(=O)OC)n1 (stereo not given)
Result: 10

Query: Next compound up: CCN(CC)C(=O)n1cnc(S(=O)(=O)C(Cc2ccccc2)C(=O)OC)n1 (stereo not given)
Result: 10

Query: Next compound up: CCN(CC)C(=O)n1cnc(S(=O)(=O)C(CC(C)C)C(=O)OC(C)(C)C)n1 (stereo not given)
Result: 10
